Kindly state composite z-score for each of the entries shown.
assay: binders of probe aFST on microarray, primary screen, stem cell growth factor project, biochemical, small-molecule microarray, fluorescence 635/667 (AID 1086); conditions: higher = more signal;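 note: score merges 667 nm fluorescence with signal-to-noise of each printed compound spot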
Number, no unit, nothing else.

So, `CO[C@H]1COC(=O)[C@H](CCSC)NC(=O)CC=C[C@@H](C)COC(=O)[C@@H](OCc2ccccc2)C=C[C@@H]1C` ? Its composite z-score was -0.327

So, `O=C(NCC(F)(F)F)[C@@H]1c2ccccc2C(=O)N(Cc2ccccc2Cl)[C@H]1c1ccc(CO)cc1` ? Its composite z-score was 0.214

So, `O=C1c2ccccc2[C@](Cc2ccccc2I)(C(=O)NCc2ccccc2)[C@H](c2ccc(CO)cc2)N1Cc1ccccc1C(F)(F)F` ? Its composite z-score was -0.318

So, `COCCOC(=O)N1C(=O)[C@@]2(c3ccccc31)[C@H](C(=O)N1CCc3cc(OC)c(OC)cc3C1)[C@H]1C(=O)O[C@H](c3ccccc3)[C@H](c3ccccc3)N1[C@@H]2c1ccccc1OCCO` ? Its composite z-score was 0.481

So, C=CCC(OC(C)=O)[C@@H]1[C@@H](N(Cc2cc3ccccc3o2)C(=O)Cc2ccc(F)cc2)c2cc(OCCCO)ccc2N1C(=O)c1ccc(-c2ccccc2)cc1 (stereo partly drawn) ? Its composite z-score was 0.141

So, C=CCC(OC(C)=O)[C@@H]1[C@@H](N(Cc2ccc(-c3ccccc3)cc2)C(=O)c2ccc(-c3ccccc3)cc2)c2cc(OCCCO)ccc2N1C(=O)Cc1ccc(OC)cc1 (stereo partly drawn) ? Its composite z-score was 0.391

So, O=C1OCCC/C=C\[C@H]2OC34C=CCN(CCN5CCOCC5)C(=O)[C@H]3N(CCCCCO)C(=O)[C@@H]4C12 (stereo partly drawn) ? Its composite z-score was -0.676

So, `C[C@@H]1CC[C@H]2C(=O)N3CCC[C@H]3C(=O)N2[C@H]1c1ccc(Br)cc1` ? Its composite z-score was -0.0423

So, `CC(=O)NCCCC[C@@H]1NC(=O)[C@H]2C[C@@H](C(=O)NCCCCCCN(C)C)[C@@H](c3cccc(OCCO)c3)N2C1=O` ? Its composite z-score was 0.861

So, `C=C(C(=O)CC[C@H](OC(=O)c1ccccc1-c1ccccc1C(=O)O)c1ccc(CO)o1)C(C)C` ? Its composite z-score was 0.0357

So, `C=CCc1cccc([C@@H]2[C@@H](C)CC[C@H]3C(=O)N4[C@H](c5cccc(CC=C)c5)[C@@H](C)CC[C@H]4C(=O)N23)c1` ? Its composite z-score was 0.56

So, O=C(NCC(O)CO)[C@]1(Cc2ccccc2)N=C(c2ccc(OCCCO)cc2)O[C@@H]1c1ccccc1 (stereo partly drawn) ? Its composite z-score was 0.864

So, `C=CCN1C(=O)[C@@]2(Cc3ccccc3)N=C(c3ccc(OCCCO)cc3)O[C@H]2c2ccccc21` ? Its composite z-score was 0.691

So, `C[C@]1(C(=O)NCc2ccccc2)c2ccccc2C(=O)N(Cc2cc(C(F)(F)F)cc(C(F)(F)F)c2)[C@H]1c1ccc(CO)cc1` ? Its composite z-score was 0.185

So, `C=CC[C@@]1(C(=O)N2CCOCC2)N=C(c2ccc(OCCCO)cc2)O[C@@H]1c1ccccc1` ? Its composite z-score was -0.298

So, `O=[N+]([O-])c1ccc(C[n+]2ccc3ccc(O)cc3c2)o1` ? Its composite z-score was 0.147

So, C=CCC(OC(C)=O)[C@@H]1[C@@H](N(Cc2ccc(-c3cccc(C(F)(F)F)c3)o2)C(=O)Cc2ccc(F)cc2)c2cc(OCCCO)ccc2N1C(=O)c1ccc(-c2ccccc2)cc1 (stereo partly drawn) ? Its composite z-score was 0.0417

So, `CO[C@H]1COC(=O)[C@H](Cc2ccccc2)NC(=O)CC=C[C@@H](C)[C@H](OC)COC(=O)CC=C[C@@H]1C` ? Its composite z-score was 0.244

So, `CC1=C([C@H](O)CCc2ccccc2)[C@H](CO)[C@@H]2C(=O)N(Cc3ccccc3)C(=O)[C@@H]2C1` ? Its composite z-score was 0.0747

So, `CO[C@H]1COC(=O)[C@@H](C)NC(=O)CC=C[C@@H](C)[C@H](OC)COC(=O)CC=C[C@@H]1C` ? Its composite z-score was -0.0849

So, `C=CCNC(=O)[C@H]1[C@@H]2C(=O)O[C@@H](c3ccccc3)[C@@H](c3ccccc3)N2[C@@H](c2ccccc2OCCO)[C@]12C(=O)N(C(=O)OCCOC)c1ccc(C#CCNC(N)=O)cc12` ? Its composite z-score was 0.428

So, `COc1cc2c(cc1OC)CN(C(=O)[C@@H]1[C@H]3C(=O)O[C@H](c4ccccc4)[C@H](c4ccccc4)N3[C@H](c3ccccc3OCCO)[C@@]13C(=O)Nc1ccccc13)CC2` ? Its composite z-score was -0.44

So, `C#C[C@H](O[Si](C#Cc1ccccc1)(C(C)C)C(C)C)c1ccccc1` ? Its composite z-score was -0.649

---

test system: Chordin-like protein 2 (CHRDL2); experiment: CHRDL2 small-molecule binders, primary screen, biochemical, small-molecule microarray, 635 nm fluorescence (AID 1126); conditions: small-molecule microarray binding, fluorescence 635 nm; higher = more signal;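 note: printed compound slides probed with Chrdl2 protein at 4 µg/mL for 1 h at 4 C; score merges 667 nm emission intensity with signal to noise over three replicate slides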
Note to self: values exactly at 0.3 are true (1). So composite z-score at or above 0.3 is true (1), below is false (0).

Q. Reported composite z-score at or above 0.3? CC(C)C[C@@H]1NC(=O)[C@H](CC(C)C)NC(=O)[C@@]23C(=O)N[C@@H](Cc4ccccc4)C2[C@H](C)[C@@]2(C)O[C@H]2C3/C=C/CC/C=C/CNC1=O (some centres not stated)
A. true (1)

Q. Reported composite z-score at or above 0.3? CC(C)N1CC=CC23O[C@@H]4/C=C\CCCOC(=O)C4[C@H]2C(=O)N(CCCCCO)[C@@H]3C1=O (some centres not stated)
A. false (0)

Q. Reported composite z-score at or above 0.3? `CN(C)C(=O)[C@@]1(Cc2ccccc2N=[N+]=[N-])N=C(c2ccc(OCCCO)cc2)O[C@H]1c1ccccc1CN=[N+]=[N-]`
A. false (0)

Q. Reported composite z-score at or above 0.3? `COC(=O)C[C@H]1O[C@]2(C(=O)N(C)c3ccccc32)[C@@H](C)[C@@H]1[Si](C)(C)c1ccc(OC)cc1`
A. false (0)

Q. Reported composite z-score at or above 0.3? `Cc1ccc(S[C@]2(C(=O)NCCN3CCOCC3)CC(=O)N(C3Cc4ccccc4C3)[C@@H]2c2ccc(CO)cc2I)cc1`
A. false (0)

Q. Reported composite z-score at or above 0.3? `COC(=O)Cn1c(C(=O)N2CCCC2)cc2c1C[C@H]1CN(C(=O)c3ccccc3)[C@@](Cc3ccccc3)(C(=O)OC)[C@@H]21`
A. false (0)

Q. Reported composite z-score at or above 0.3? `COc1cc2c(cc1OC)CN(C(=O)[C@H]1[C@@H]3C(=O)O[C@@H](c4ccccc4)[C@@H](c4ccccc4)N3[C@@H](c3ccc(O)cc3)[C@]13C(=O)Nc1ccc(C#CC4(O)CCCCCC4)cc13)CC2`
A. true (1)

Q. Reported composite z-score at or above 0.3? `COc1cc(CO)cc(I)c1O[C@H]1C=C(C(=O)NCCO)C[C@@H](N(CC2CCCCC2)C(=O)c2cc3ccccc3oc2=O)[C@@H]1O`
A. true (1)

Q. Reported composite z-score at or above 0.3? `COCCCNC(=O)[C@@]1(c2ccc([N+](=O)[O-])cc2)CC(=O)N(C2CCCCC2)[C@@H]1c1ccc(CO)cc1`
A. false (0)

Q. Reported composite z-score at or above 0.3? `C=CC[C@@]1(C(=O)N2CCOCC2)N=C(c2ccc(OCCCO)cc2)O[C@@H]1c1ccccc1`
A. false (0)

Q. Reported composite z-score at or above 0.3? `CO[C@H]1COC(=O)[C@H](Cc2ccccc2)NC(=O)CC=C[C@@H](C)[C@H](OC)COC(=O)CC=C[C@@H]1C`
A. true (1)

Q. Reported composite z-score at or above 0.3? `CO[C@H]1COC(=O)CC=C[C@@H](C)COC(=O)[C@@H](C)NC(=O)CC=C[C@@H]1C`
A. true (1)

---

assay: COS7 lysate on small-molecule microarray, probe aHis, 635 nm (AID 1123); conditions: COS7 cell lysate, fluorescence, higher = more signal;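 note: z-score combines 667nm fluorescence intensity with signal-to-noise per printed compound spot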
QUANTITY_MEASURED: composite z-score
Number, no unit, nothing else.

So, `O=C(NCc1ccccc1)[C@@]1(CCS(=O)(=O)c2ccccc2)COC(c2ccc(OCCCO)cc2)=N1` ? Its composite z-score was 3.01

So, `COCCOC(=O)N1C(=O)[C@@]2(c3cc(C#CCC(C(=O)OC)C(=O)OC)ccc31)[C@H](C(=O)N1CCN(c3ncccn3)CC1)[C@H]1C(=O)O[C@H](c3ccccc3)[C@H](c3ccccc3)N1[C@@H]2c1ccc(O)cc1` ? Its composite z-score was 1.48

So, `C=CCc1cccc([C@@H]2[C@@H](C)CC[C@H]3C(=O)N4[C@H](c5cccc(CC=C)c5)[C@@H](C)CC[C@H]4C(=O)N23)c1` ? Its composite z-score was 0.564

So, `CCN1C(C)=C(C(=O)OC)[C@@H](c2ccccc2)N2C(=O)[C@@]3(C(=O)OC)O[C@@]12[C@@H]1C(=O)N(c2ccccc2)C(=O)[C@@H]13` ? Its composite z-score was 0.463

So, `COc1ccc([Si](C)(C)[C@@H]2[C@@H](CCO)O[C@]3(C(=O)N(Cc4ccccc4)c4ccccc43)[C@H]2C)cc1` ? Its composite z-score was 0.141

So, `COc1ccc([Si](C)(C)[C@H]2[C@H](CCO)O[C@@]3(C(=O)N(Cc4ccccc4)c4ccc(N5C(=O)c6cccc7cccc5c67)cc43)[C@@H]2C)cc1` ? Its composite z-score was 0.0609

So, `CN(C)CCCC[C@@H]1NC(=O)[C@@H]2C[C@H](C(=O)O)[C@H](c3ccc(O)cc3)N2C1=O` ? Its composite z-score was 0.917

Just for reference, PubChem BioAssay is where these values come from.
